Hello, the source for this data is patent US20210324050A1, in case you need it.

target.under.test: T1, GII.4 Sydney 2012 virus-like particles (VLPs), based on strain AFV08795.1 (human norovirus GII.4 Sydney 2012, UniProt P54635 1-538)
T1 construct: also called GII.4 VLPs
T1 chain: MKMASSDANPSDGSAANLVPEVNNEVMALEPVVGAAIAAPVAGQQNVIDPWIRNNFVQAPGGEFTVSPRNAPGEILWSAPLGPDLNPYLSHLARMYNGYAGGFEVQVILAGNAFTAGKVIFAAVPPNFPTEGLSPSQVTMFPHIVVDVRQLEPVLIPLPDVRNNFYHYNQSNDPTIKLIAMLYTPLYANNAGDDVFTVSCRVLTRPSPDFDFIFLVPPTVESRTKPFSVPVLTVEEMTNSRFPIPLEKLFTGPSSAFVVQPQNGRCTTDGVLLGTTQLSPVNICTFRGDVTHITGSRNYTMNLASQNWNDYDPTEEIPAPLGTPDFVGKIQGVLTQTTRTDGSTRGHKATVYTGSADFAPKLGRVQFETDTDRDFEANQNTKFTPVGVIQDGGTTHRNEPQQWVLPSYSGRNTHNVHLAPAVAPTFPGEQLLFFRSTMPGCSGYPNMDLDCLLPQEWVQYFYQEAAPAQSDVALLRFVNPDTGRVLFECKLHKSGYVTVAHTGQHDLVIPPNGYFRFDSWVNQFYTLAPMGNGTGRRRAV
assay.explanation: indirect ELISA on coated GII.4 Sydney 2012 VLPs
Exam item: assign yes to entries whose EC50 is below 0.4 µg/mL and no to entries at or above 0.4 µg/mL. Note that a value of exactly 0.4 µg/mL receives no.

>  <binder>
NORO-263 (antibody, V domains shown) VH: QVQLVESGGGLVKPGGSLRLSCAASGFTLSDYYMSWIRQAPGKGLEWVAYISSSHTSTYYRDSVKGRFTISRDSAKKSLYLQMNSLRVEDTAIYYCARDWVGGRSAYSDHWGQGTLVTVSS VL: SYELTQPPSVSVSPGQTARITCSGDALPRRPAFWYQQKSGQAPVLVMYDDSKRPSGIPERFSGSSSGTVATLTISGAQVEDEADYHCYSTDSSGKERVFGGGTKLTVL

>  <assigned.category>
no

$$$$
>  <binder>
NORO-278 (antibody, V domains shown) VH: QVQLVESGGGVVQPGRSLRLSCAASGFTFSSYGMHWVRQAPGKGLEWVAVISYDGSNKYYADSVKGRFTISRDNSKNTLYLQMNSLRAEDTAVYYCAKVTIIAAADLLDYWGQGTLVTVSS VL: QSVLTQPPSVSGAPGQRVTISCTGSSSNIGAGYDVHWYQQLPGTAPKLLIYGNSNRPSGVPDRFSGSKSGTSASLAITGLQAEDEADYYCQSYDSSLSGPVVFGGGTKLTVL

>  <assigned.category>
no

$$$$
>  <binder>
NORO-273A (antibody, V domains shown) VH: QVQLVQSGAEVKKPGASVKISCKASGYDFTSFPMHWVRLGPGQRLEWMGWISAANGNTKYSQKFQDRFTITRDTSASIVHMELSSLRSEDTAVYYCARGGYSSGLYRYSNYYYGMTVWGQGTLVTVSS VL: DIVMTQTPLSLSVTPGQPASISCKSSESLLHNDRKTYLFWYLQKPGQPPQLLIFQVSNRFSGVPDRFSGSGSGTDFTLRISRVEAEDVGIYYCLQTTQLPLTFGGGTKVEIK

>  <assigned.category>
yes

$$$$
>  <binder>
NORO-251A (antibody, V domains shown) VH: QVQLVESGGGVVQPGRSLRLSCAASGFTFRSYGIHWVRQAPGKGLEWVALISYDGSSKYYADSVKGRFTISRDNSKNTLYLQMNSLRSEDTAVYYCAKVRLTSYSIGWFSFDYWGQGTLVTVSS VL: QSVLTQPPSVSAAPGQKVTISCSGSSSNIANYYVSWYQQLPGRAPKLLIYDNNKRPSGIPDRISGSKSGTSATLGITGLQTGDEADYYCGTWDTSLSAWVFGGGTKLTVL

>  <assigned.category>
no

$$$$

Exam item: Input NORO-279A (antibody, V domains shown) VH: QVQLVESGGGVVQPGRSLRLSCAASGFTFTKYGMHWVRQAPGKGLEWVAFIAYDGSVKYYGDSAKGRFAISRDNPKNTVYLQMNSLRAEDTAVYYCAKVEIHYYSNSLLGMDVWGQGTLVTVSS VL: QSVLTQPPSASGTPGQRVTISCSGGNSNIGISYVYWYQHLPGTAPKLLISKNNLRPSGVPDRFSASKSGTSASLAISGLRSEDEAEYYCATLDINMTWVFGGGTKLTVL ; condition: EC50 strictly below 0.4 µg/mL. Does it hold?
Marked response: yes
